From: PubChem BioAssay (EPA / NIEHS)

Read-out: Vascular cell adhesion molecule 1 (VCAM1), VCAM1 (gene 7412)
Experiment: BSK_CASM3C_VCAM1: BioMAP Diversity Plus: CASM3C Assay for Vascular cell adhesion molecule 1 (VCAM1) Biomarker Activity (AID 2283055);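 note: VCAM-1 protein level quantified by ELISA on the cells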
Conditions: primary human coronary artery smooth muscle cells; actives raise or lower the signal
The source made the active and inactive calls. Rule for the calls: active = hit-call score of the fitted dose curve at least 0.9, where 1 is the maximum; inactive = score below 0.9.
Allowed answers: y for active, n for inactive

// below: answered molecules
Line Notation: OCC(F)(F)OC(F)(F)C(F)(F)OC(F)(F)C(F)(F)OC(F)(F)CO
Class Assignment: n

Line Notation: c1cc2c3c(cccc3c1)CC2
Class Assignment: n

Line Notation: CCOP(=S)(OCC)SCSc1ccc(Cl)cc1
Class Assignment: y

Line Notation: ClC(Cl)(Cl)c1ccccc1
Class Assignment: n

Line Notation: CCCN(CCC)c1c([N+](=O)[O-])cc(C(C)C)cc1[N+](=O)[O-]
Class Assignment: n

Line Notation: O=C(O)C(F)(F)OC(F)(F)C(F)(F)OC(F)(F)C(=O)O
Class Assignment: n

Below: the item to evaluate.
Qu. Hi, do you know how CC(C)(C)c1ccccc1OP(=O)(Oc1ccccc1)Oc1ccccc1 came out in this test?
Ans. y

---

Read-out: Interleukin-1 alpha (IL1a), IL1A (gene 3552)
Assay: BSK_BE3C_IL1a: BioMAP Diversity Plus: BE3C Assay for Interleukin-1 alpha (IL1a) Biomarker Activity (AID 2283016)
Conditions: primary human bronchial epithelial cells; actives raise or lower the signal
The source made the active and inactive calls. How the source made its calls: active means hit-call score of the fitted dose curve at least 0.9, where 1 is the maximum; inactive means score below 0.9.
Select the matching outcome among active, inactive

Example results:
Compound: CCOP(=S)(OCC)SCn1nnc2ccccc2c1=O
Class Assignment: inactive
--
Compound: c1nc[nH]n1
Class Assignment: inactive

Qu. Any idea what this test logged for O=P(OCC(Br)CBr)(OCC(Br)CBr)OCC(Br)CBr (stereo not drawn) ?
Ans. active

---

Assay: BSK_SAg_Proliferation: Cell Proliferation Assessment in the BioMAP Diversity Plus: SAg Assay (AID 2283095);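 note: relative cell number as total protein by SRB absorbance in sub-confluent culture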
Conditions: primary human HUVEC with PBMC
Calls of active or inactive are those of the source. How the source made its calls: active means hit-call score of the fitted dose curve at least 0.9, where 1 is the maximum; inactive means score below 0.9.
Endpoint Label: AC50

Worked examples follow.
Compound: O=S(=O)(F)C(F)(F)C(F)(F)C(F)(F)C(F)(F)C(F)(F)C(F)(F)C(F)(F)C(F)(F)F
AC50: inactive

Compound: CCOc1ccc(C(C)(C)COCc2cccc(Oc3ccccc3)c2)cc1
AC50: 20 µM (active)

Compound: CCOP(=S)(OCC)SCSc1ccc(Cl)cc1
AC50: 14.2 µM (active)

Compound: Nc1cc2c3c(c1)C(c1ccccc1)=N[C@@H](NC(=O)c1cccnc1)C(=O)N3CC2
AC50: inactive

Compound: C=CC(=O)OCC(CC)(COC(=O)C=C)COC(=O)C=C
AC50: 0.587 µM (active)

Fill in AC50 for each of the 5 compounds listed.
1. Cc1ccc2c(c1N)C(=O)c1ccccc1C2=O
2. CCNc1nc(Cl)nc(NC(C)(C)C)n1
3. CC(Cl)(Cl)C(=O)O
4. CCCCC(CC)COP(=O)(Oc1ccccc1)Oc1ccccc1 (configuration not stated)
5. [N-]=[N+]=[N-]

Ans.
["inactive", "inactive", "inactive", "20 µM (active)", "inactive"]

For each entry beneath this line, provide reported AC50.
1. FC(F)(F)C(F)(C(F)(F)F)C(F)(F)C(F)(F)CC1CO1 (configuration not stated)
2. CCOP(=S)(OCC)SCSCC
3. O=C(O)C(Cl)Cl
4. CCC1(c2ccccc2)C(=O)N=C(O)NC1=O (configuration not stated)
5. Cc1c([N+](=O)[O-])cc2c(c1[N+](=O)[O-])C(C)(C)CC2(C)C
6. Nc1ccc2ccccc2c1
7. N#Cc1cc([N+](=O)[O-])ccc1N

Ans.
1. inactive
2. inactive
3. inactive
4. inactive
5. 7.41 µM (active)
6. inactive
7. inactive
